tested on: RARa homodimer (NR concentration 270 nM); test: PBM binding z-score (relative to random genomic background probes); higher = stronger binding; sequences stand for … in GC…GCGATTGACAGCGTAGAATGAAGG
Categories are assigned from the measured PBM binding z-score using these intervals: one = under 0.4, two = from 0.4 up to 1, three = 1 and over

In plain terms, what class is TCAGACAGGTGAAGGTAAATCAGGTACGCAGTCG ?
two

Looking at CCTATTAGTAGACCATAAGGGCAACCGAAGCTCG , which class would you pick?
three

GET /class?item= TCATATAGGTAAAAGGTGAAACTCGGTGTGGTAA
three

Using the reported PBM binding z-score, which band applies to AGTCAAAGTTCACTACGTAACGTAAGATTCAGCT ?
three

Assign a category based on measured PBM binding z-score for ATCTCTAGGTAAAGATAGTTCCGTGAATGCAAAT and give only the class name.
two

Note: place this sequence into its band. Item: TCTATGAGTTGAAGGGCAACCGACGAGTCCGTTT
one

Band for the recorded PBM binding z-score of CCTTACGGGTCACTGACAGGTTACAGCATTTGGA ?
one

Sort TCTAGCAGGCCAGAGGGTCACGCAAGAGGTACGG into one of the categories.
one

Record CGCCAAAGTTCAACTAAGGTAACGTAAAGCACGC — which class?
three

Lab note: which band did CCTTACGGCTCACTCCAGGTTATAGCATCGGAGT land in?
one

Input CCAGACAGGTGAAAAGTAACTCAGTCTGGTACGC ; output its category
two

GET /class?item= ATCTCTAGGTAACAAGTTCAGTTAAAGAGAGGAC
three

Please indicate the class for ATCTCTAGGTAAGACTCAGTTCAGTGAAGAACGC based on its PBM binding z-score.
two

Looking at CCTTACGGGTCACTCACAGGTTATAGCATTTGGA , which class would you pick?
three

Input CAAACTAGGTAACAGAGGTCAAAGTCCGTGCGTA ; output its category
three

Consider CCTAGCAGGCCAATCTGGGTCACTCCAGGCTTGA . To which PBM binding z-score class does it belong?
one

Which PBM binding z-score category applies to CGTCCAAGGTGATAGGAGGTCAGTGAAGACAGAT here?
one

// return the class label for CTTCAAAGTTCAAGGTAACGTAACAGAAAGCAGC
three

Each sequence maps to one class by PBM binding z-score. Which class for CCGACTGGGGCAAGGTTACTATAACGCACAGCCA ?
one

Which category fits this record: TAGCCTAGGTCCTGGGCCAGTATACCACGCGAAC
one

Quick check: band for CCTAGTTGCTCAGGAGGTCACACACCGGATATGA
three

Given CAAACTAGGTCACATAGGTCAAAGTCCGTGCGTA , name the class its PBM binding z-score places it in.
three

State the band of CCGACCGGGGCATAAGGTTACCATAAGCCAGCCC
one

# bin lookup: classify TCATATAGGTAAAAGTTGAAAGTCGGTGTGGTAA by its PBM binding z-score
three

Kindly identify the class of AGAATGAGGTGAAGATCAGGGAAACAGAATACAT .
two

Which category does the recorded PBM binding z-score put CCTACTGGGCCATCAGGTCTTTGATATCAACGTT in?
one

---

tested on: RARa homodimer (NR concentration 270 nM); test: PBM binding z-score (relative to random genomic background probes); higher = stronger binding; sequences stand for … in GC…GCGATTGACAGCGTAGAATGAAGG
Label 1 (yes) when PBM binding z-score >= 0.5; otherwise 0 (no).

Record CGAACTAGGTCACGGACAGTGAATCTCCGCACGC ; criterion: PBM binding z-score no lower than 0.5. Met?
1 (yes)

Answer whether PBM binding z-score of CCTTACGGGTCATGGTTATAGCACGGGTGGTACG is greater than or equal to 0.5.
0 (no)

Reported PBM binding z-score reaches at least 0.5 for TCAGACGGGTGAAGGTAACTCAGGTACGCAGTCG ?
0 (no)

# check: PBM binding z-score of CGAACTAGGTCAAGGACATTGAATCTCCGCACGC is greater than or equal to 0.5
1 (yes)

Could you please find out whether CAAACTAGGTCACCGGAAGGTCTAAGTCCGCATG has PBM binding z-score that meets 0.5 or exceeds it?
1 (yes)

I'd appreciate it if you could say whether GGAACGAGGGCAAGTTGATAACAGAGTTTGATGG has PBM binding z-score at least equal to 0.5.
0 (no)
